Could you please report measured Kd for the items listed next?
- Assay Target: DC-SIGN CRD (Homo sapiens)
- Experimental Protocol: Direct native ESI-MS (submicron emitters) with a mixture of ten glycans (G2, G5, G10, G14-G20), 200 mM ammonium acetate with 2.5 mM calcium salt, pH 7.4.
- Type: binding
- Design: gene CD209; carbohydrate recognition domain, residues 250-404, MW 17 794 Da
- Experimental Parameters: SD, n = 6; read-out: Kd (nMS), Table S5
Note: state the figure and append the unit.

# Molecule, Kd
measured = [
    ("CC(=O)N[C@H]1[C@H](O[C@H]2[C@@H](O)[C@@H](CO)OC(O)[C@@H]2O)O[C@H](CO)[C@@H](O[C@@H]2O[C@@H](C)[C@@H](O)[C@@H](O)[C@@H]2O)[C@@H]1O[C@@H]1O[C@H](CO)[C@H](O)[C@H](O)[C@H]1O[C@@H]1O[C@@H](C)[C@@H](O)[C@@H](O)[C@@H]1O (stereo partly shown) [G17, blood group antigen G17]", "620 µM"),
    ("OC[C@H]1O[C@H](O[C@H]2[C@H](O)[C@@H](O)[C@@H](O[C@H]3[C@H](O)[C@@H](O)[C@@H](O[C@H]4[C@H](O)[C@@H](O)[C@@H](O[C@H]5[C@H](O)[C@@H](O)C(O)O[C@@H]5CO)O[C@@H]4CO)O[C@@H]3CO)O[C@@H]2CO)[C@H](O)[C@@H](O)[C@@H]1O (stereo partly shown)", "2410 µM"),
    ("OC[C@H]1O[C@H](OC[C@H]2O[C@H](OC[C@H]3OC(O)[C@@H](O)[C@@H](O[C@H]4O[C@H](CO)[C@@H](O)[C@H](O)[C@@H]4O[C@H]4O[C@H](CO)[C@@H](O)[C@H](O)[C@@H]4O)[C@@H]3O)[C@@H](O)[C@@H](O[C@H]3O[C@H](CO)[C@@H](O)[C@H](O)[C@@H]3O)[C@@H]2O)[C@@H](O)[C@@H](O)[C@@H]1O (stereo partly shown)", "810 µM"),
]

Okay, next one:
Requested field: Kd. Item: C[C@@H]1O[C@@H](O[C@H]2[C@H](O[C@H]3[C@H](O)[C@@H](O)C(O)O[C@@H]3CO)O[C@H](CO)[C@H](O)[C@@H]2O)[C@@H](O)[C@H](O)[C@@H]1O (stereo partly shown)
2100 µM

---

- Assay Target: DC-SIGN CRD (Homo sapiens, UniProt Q9NNX6)
- Sequence (Q9NNX6 250-404): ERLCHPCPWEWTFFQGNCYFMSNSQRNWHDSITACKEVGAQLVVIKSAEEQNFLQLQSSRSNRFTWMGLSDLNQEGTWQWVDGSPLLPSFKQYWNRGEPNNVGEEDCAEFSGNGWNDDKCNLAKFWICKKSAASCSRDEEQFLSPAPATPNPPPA
- Experimental Protocol: Direct native ESI-MS (submicron emitters) with a mixture of ten glycans (G2, G5, G10, G14-G20), 200 mM ammonium acetate with 2.5 mM calcium salt, pH 7.4.
- Type: binding
- Design: gene CD209; carbohydrate recognition domain, residues 250-404, MW 17 794 Da
- Experimental Parameters: SD, n = 6; read-out: Kd (nMS), Table S5
Readout Name: pKd
One number for each entry, as −log10 of the molar value.

Requested field: pKd. Item: OC[C@H]1O[C@H](O[C@@H]2[C@H](O)[C@@H](OC[C@H]3OC(O)[C@@H](O)[C@@H](O[C@H]4O[C@H](CO)[C@@H](O)[C@H](O)[C@@H]4O[C@H]4O[C@H](CO)[C@@H](O)[C@H](O)[C@@H]4O[C@H]4O[C@H](CO)[C@@H](O)[C@H](O)[C@@H]4O)[C@@H]3O)O[C@H](CO[C@H]3O[C@H](CO)[C@@H](O)[C@H](O)[C@@H]3O[C@H]3O[C@H](CO)[C@@H](O)[C@H](O)[C@@H]3O)[C@H]2O)[C@@H](O)[C@@H](O)[C@@H]1O (stereo partly shown) [G14]
3.57

---

- Assay Target: GAL-3C (Homo sapiens, UniProt P17931)
- Sequence (P17931 107-250): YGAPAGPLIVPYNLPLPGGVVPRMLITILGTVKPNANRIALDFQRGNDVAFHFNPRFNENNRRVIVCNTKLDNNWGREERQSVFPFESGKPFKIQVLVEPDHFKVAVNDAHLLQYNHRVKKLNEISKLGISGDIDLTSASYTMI
- Experimental Protocol: COIN-nMS with a mixture of ten glycans (G2, G5-G13), 200 mM ammonium acetate, pH 6.9.
- Assay type: binding
- Parameters: gene LGALS3; C-terminal carbohydrate recognition domain fragment, residues 107-250
- Experimental Parameters: SD, n = 8; read-out: Kd (COIN-nMS), Table S3
Readout Name: Kd (µM)
One number for each entry, in µM.

# Molecule, Kd, µM
data = [
    ("CC(=O)N[C@H]1[C@@H](O[C@H]2[C@@H](O)[C@@H](CO)O[C@@H](O[C@H]3[C@H](O)[C@@H](O)C(O)O[C@@H]3CO)[C@@H]2O[C@@H]2O[C@@H](C)[C@@H](O)[C@@H](O)[C@@H]2O)O[C@H](CO)[C@H](O)[C@@H]1O (some centres unmarked)", 10.4),
]

Okay, next one:
Requested field: Kd. Item: CC(=O)N[C@H]1[C@@H](O[C@H]2[C@@H](O)[C@@H](CO)O[C@@H](O[C@H]3[C@H](O)[C@@H](CO)O[C@@H](O[C@H]4[C@@H](O)[C@@H](CO)O[C@@H](O[C@H]5[C@H](O)[C@@H](O)C(O)O[C@@H]5CO)[C@@H]4O)[C@@H]3NC(C)=O)[C@@H]2O[C@@H]2O[C@@H](C)[C@@H](O)[C@@H](O)[C@@H]2O)O[C@H](CO)[C@H](O)[C@@H]1O (some centres unmarked)
2.4

---

- Assay Target: GAL-3C (Homo sapiens, UniProt P17931)
- Experimental Protocol: Direct native ESI-MS with a mixture of ten glycans (G2, G5-G13), 200 mM ammonium acetate, pH 6.9.
- Format: binding
- Design: gene LGALS3; C-terminal carbohydrate recognition domain fragment, residues 107-250
- Experimental Parameters: SD, n = 8; read-out: Kd (nMS), Table S3
pKd: −log10 of the molar value.
Quick rule: pKd of at least 5 means Criterion met, below that means Criterion not met.

Completed entries (count: 3):
# Compound, Discrete Label
measured = [
    ("CC(=O)N[C@H]1[C@H](O[C@H]2[C@@H](O)[C@@H](CO)O[C@@H](O[C@H]3[C@H](O)[C@@H](NC(C)=O)[C@H](O[C@H]4[C@@H](O)[C@@H](CO)O[C@@H](O[C@H]5[C@H](O)[C@@H](O)C(O)O[C@@H]5CO)[C@@H]4O)O[C@@H]3CO)[C@@H]2O)O[C@H](CO)[C@@H](O[C@@H]2O[C@H](CO)[C@H](O)[C@H](O)[C@H]2O)[C@@H]1O (some centres unmarked)", "Criterion met"),
    ("CC(=O)N[C@H]1[C@H](O[C@H]2[C@@H](O)[C@@H](CO)O[C@@H](O[C@H]3[C@H](O)[C@@H](O)C(O)O[C@@H]3CO)[C@@H]2O)O[C@H](CO)[C@@H](O[C@@H]2O[C@H](CO)[C@H](O)[C@H](O)[C@H]2O)[C@@H]1O (some centres unmarked)", "Criterion not met"),
    ("CC(=O)N[C@H]1[C@@H](O[C@H]2[C@@H](O)[C@@H](CO)O[C@@H](O[C@H]3[C@H](O)[C@@H](CO)O[C@@H](O[C@H]4[C@@H](O)[C@@H](CO)O[C@@H](O[C@H]5[C@H](O)[C@@H](O)C(O)O[C@@H]5CO)[C@@H]4O)[C@@H]3NC(C)=O)[C@@H]2O[C@@H]2O[C@@H](C)[C@@H](O)[C@@H](O)[C@@H]2O)O[C@H](CO)[C@H](O)[C@@H]1O (some centres unmarked)", "Criterion met"),
]

--- query ---
Hi team, for CC(=O)N[C@H]1[C@@H](O[C@H]2[C@@H](O)[C@@H](CO)O[C@@H](O[C@H]3[C@H](O)[C@@H](NC(C)=O)C(O)O[C@@H]3CO)[C@@H]2O[C@@H]2O[C@@H](C)[C@@H](O)[C@@H](O)[C@@H]2O)O[C@H](CO)[C@H](O)[C@@H]1O (some centres unmarked) , is the recorded pKd at or above 5?
Criterion not met

---

Could you please report measured Kd for the items listed next?
- Assay Target: GAL-3C (Homo sapiens, UniProt P17931)
- Experimental Protocol: Direct native ESI-MS with a mixture of ten glycans (G2, G5-G13), 200 mM ammonium acetate, pH 6.9.
- Assay type: binding
- Set-up: gene LGALS3; C-terminal carbohydrate recognition domain fragment, residues 107-250
- Experimental Parameters: SD, n = 8; read-out: Kd (nMS), Table S3

# Compound, Kd
data = [
    ("CC(=O)N[C@H]1[C@H](O[C@H]2[C@@H](O)[C@@H](CO)O[C@@H](O[C@H]3[C@H](O[C@@H]4O[C@@H](C)[C@@H](O)[C@@H](O)[C@@H]4O)[C@@H](O)C(O)O[C@@H]3CO)[C@@H]2O)O[C@H](CO)[C@@H](O)[C@@H]1O[C@@H]1O[C@H](CO)[C@H](O)[C@H](O)[C@H]1O (stereo partly drawn)", "26.8 µM"),
    ("C[C@@H]1O[C@@H](O[C@H]2[C@H](O[C@H]3[C@H](O)[C@@H](O)C(O)O[C@@H]3CO)O[C@H](CO)[C@H](O)[C@@H]2O)[C@@H](O)[C@H](O)[C@@H]1O (stereo partly drawn)", "166 µM"),
]

Okay, next one:
Requested field: Kd. Item: CC(=O)N[C@H]1[C@H](O[C@H]2[C@@H](O)[C@@H](CO)O[C@@H](O[C@H]3[C@H](O)[C@@H](NC(C)=O)[C@H](O[C@H]4[C@@H](O)[C@@H](CO)O[C@@H](O[C@H]5[C@H](O)[C@@H](NC(C)=O)[C@H](O[C@H]6[C@@H](O)[C@@H](CO)O[C@@H](O[C@H]7[C@H](O)[C@@H](O)C(O)O[C@@H]7CO)[C@@H]6O)O[C@@H]5CO)[C@@H]4O)O[C@@H]3CO)[C@@H]2O)O[C@H](CO)[C@@H](O[C@@H]2O[C@H](CO)[C@H](O)[C@H](O)[C@H]2O)[C@@H]1O (stereo partly drawn)
5.5 µM
